These measurements were taken from the SangsterLogP compilation.

Binary call on logP with cut-off 0.04: strictly below means Fulfilled, and equality or higher means Not fulfilled.

INSERT INTO measurements (smiles_data, label_class) VALUES
  ('NC(=O)CCCNC(=C1C=C(F)C=CC1=O)c1ccc(Cl)cc1', 'Not fulfilled'),
  ('Nc1ccc(C(=O)NCC(=O)O)cc1', 'Fulfilled'),
  ('N#C/C(=C\c1ccccc1)C(N)=O', 'Not fulfilled'),
  ('O=c1ccn([C@H]2CC[C@@H](CO)O2)c(=O)[nH]1', 'Fulfilled'),
  ('CNC(=O)CNC(C)=O', 'Fulfilled'),
  ('COC(=O)C(C#N)=NNc1ccc(Cl)c(C(F)F)c1', 'Not fulfilled'),
  ('Cc1ccc2ccccc2c1', 'Not fulfilled'),
  ('CNc1ccc([N+](=O)[O-])cc1', 'Not fulfilled');

Incoming: Could you please tell me whether logP recorded for O=c1[nH]cc(F)c(=O)[nH]1 is less than 0.04?
Outgoing: Fulfilled

Incoming: Could you please tell me whether logP recorded for C[C@@H]1C[C@H]2[C@@H]3CCC4=CC(=O)C=C[C@]4(C)[C@@]3(F)[C@@H](O)C[C@]2(C)[C@@]1(O)C(=O)CO is less than 0.04?
Outgoing: Not fulfilled

Incoming: Could you please tell me whether logP recorded for O=C(O)c1cccc(I)c1 is less than 0.04?
Outgoing: Not fulfilled

Incoming: Could you please tell me whether logP recorded for C=CCC1(CC)C(=O)NC(=O)NC1=O is less than 0.04?
Outgoing: Not fulfilled
